system: TNFα; assay: cells; assay type: cell-based, human; conditions: Homo sapiens, Monocyte, LPS-stimulated human monocytes, TNFα content; read-out: EC50 TNF
measured.property: log10(EC50) (log10 of the value in nM)
Note: values are log10 of EC50 expressed in nM.

Sample answers from the record:
compound.structure.string	target	log10(EC50)
N#Cc1cnn2c(-c3cc(NC4COC4)c(C(=O)N[C@H]4CC[C@H](NC(=O)C5CC5)CC4)cn3)ccc2c1	TNFα	2.00
CC(C)(O)[C@H](F)CNC(=O)c1cnc(-c2ccc3cc(C#N)cnn23)cc1Nc1cccc(OC(F)(F)F)c1	TNFα	3.16
CC(C)Nc1cc(-c2ccc3cc(C#N)cnn23)ncc1C(=O)NCC1CS(=O)(=O)C1	TNFα	2.20
CNC(=O)c1cnc(-c2ccc3cc(C#N)cnn23)cc1NC12CCC(NC(=O)OC)(CC1)CC2	TNFα	1.81
Cn1cc(Nc2cc(-c3ccc4cc(C#N)cnn34)ncc2C(=O)NC[C@@H](F)C(C)(C)O)cn1	TNFα	1.57

Proceeding to the next molecule to report its log10(EC50).
Given `COCc1ccc(Nc2cc(-c3ccc4cc(C#N)cnn34)ncc2C(=O)NC[C@@H](F)C(C)(C)O)cc1` , state its recorded log10(EC50).
1.71

The values you see were collected from patent US10336762B2.
